Molecular target: Axl (Homo sapiens, UniProt P30530)
Construct: endogenous in cells; host or cells: HeLa cells
Sequence (P30530 26-894): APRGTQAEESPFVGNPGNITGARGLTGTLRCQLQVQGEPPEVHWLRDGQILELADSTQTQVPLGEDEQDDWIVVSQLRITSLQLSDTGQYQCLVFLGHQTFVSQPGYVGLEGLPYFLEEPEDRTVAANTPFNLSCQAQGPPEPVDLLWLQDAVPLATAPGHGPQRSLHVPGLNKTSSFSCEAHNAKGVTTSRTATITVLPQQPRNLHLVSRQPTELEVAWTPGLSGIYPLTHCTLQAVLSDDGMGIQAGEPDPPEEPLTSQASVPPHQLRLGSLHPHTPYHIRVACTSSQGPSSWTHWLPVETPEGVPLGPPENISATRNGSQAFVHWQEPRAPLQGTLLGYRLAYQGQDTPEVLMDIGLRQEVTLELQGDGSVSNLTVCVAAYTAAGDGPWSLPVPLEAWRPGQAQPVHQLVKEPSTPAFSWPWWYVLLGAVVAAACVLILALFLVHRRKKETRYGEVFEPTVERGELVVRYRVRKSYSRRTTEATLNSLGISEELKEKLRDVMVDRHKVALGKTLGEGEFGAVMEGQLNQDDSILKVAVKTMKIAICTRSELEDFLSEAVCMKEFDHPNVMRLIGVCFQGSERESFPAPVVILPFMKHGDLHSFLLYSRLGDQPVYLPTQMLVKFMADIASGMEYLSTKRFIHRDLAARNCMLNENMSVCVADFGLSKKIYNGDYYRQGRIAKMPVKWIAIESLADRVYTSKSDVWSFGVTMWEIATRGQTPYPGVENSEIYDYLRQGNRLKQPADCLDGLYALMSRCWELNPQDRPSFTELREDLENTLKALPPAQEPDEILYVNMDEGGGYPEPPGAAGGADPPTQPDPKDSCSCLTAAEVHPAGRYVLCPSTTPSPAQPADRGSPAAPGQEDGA
Assay: Phospho-Akt in-cell Western assay (inhibition of Axl activity)
Format: cell-based
Conditions: inhibition of Axl activity, phospho-Akt in-cell Western assay; Table 1
pIC50: −log10 of the molar value.
READOUT: pIC50

Take a look at these entries with their results.
Record summary for Nc1nc(Nc2ccc(OCCN3CCCC3=O)cc2)nn1C(=O)c1ccc(-c2csnn2)cc1 : reported pIC50 = 5.00 to 6.00

Record CN(C)c1ccc(C(=O)n2nc(Nc3ccc(N4CCCC4)cc3)nc2N)cc1 , field pIC50: 5.00 to 6.00

# compound CC(C)(C)Oc1ccc(C(=O)n2nc(Nc3ccc(OCCN4CCCCCC4)cc3)nc2N)cc1 ; its pIC50 = > 6.00

Documented pIC50 of CC(C)(C)Oc1ccc(C(=O)n2nc(Nc3ccc(N4CCCC4)cc3)nc2N)cc1 : < 4.70

What the record says about CC(C)(C)Oc1ccc(C(=O)n2nc(Nc3ccc(OCCn4ccnc4)cc3)nc2N)cc1 : pIC50 is > 6.00

Further cases:
Record CN(C)c1cccc(C(=O)n2nc(Nc3ccc(OCCn4ccnc4)cc3)nc2N)c1 , field pIC50: 5.00 to 6.00

// recorded pIC50 for Nc1nc(Nc2ccccc2)nn1C(=O)c1ccc(-c2csnn2)cc1 : < 4.70

Reference for the values: patent US8389557B2
